B1: Osa-1-4 twister ribozyme (parent)
chain: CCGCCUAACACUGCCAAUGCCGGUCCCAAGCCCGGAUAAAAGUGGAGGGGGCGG

- Variants of: B1
- MEASUREMENT_PROTOCOL: self-cleavage, relative activity (ratio to wild type); higher = more cleavage; co-transcriptional
Mark FALSE for self-cleavage values under 0.3, and TRUE for everything at or above.

Some entries whose results are on file:
[[record]]
variant_notation = "A10G A8U"
group_label = "FALSE"

[[record]]
variant_notation = "A17U A8G"
group_label = "TRUE"

[[record]]
variant_notation = "A29U C31U"
group_label = "FALSE"

[[record]]
variant_notation = "A39G G13A"
group_label = "FALSE"

[[record]]
variant_notation = "C31G G45U"
group_label = "FALSE"


Task: Does self-cleavage meet or surpass 0.3 for G50C U12C ?
Result: TRUE

Task: Similarly, C20U G35C ?
Result: TRUE

Task: What do you get for C21U G50A ?
Result: TRUE

Task: Follow-up entry: "A28C"
Result: TRUE

Task: And the next one, C21A G49U ?
Result: FALSE

Task: Same question for A29U A36C please.
Result: FALSE

Task: Repeat with C27U G35U
Result: FALSE

Task: Would you mind doing A40C A46U as well?
Result: FALSE
